Test system: A549
Protocol Details: Cytotoxicity against human A549 cells after 72 hrs by SRB assay
Assay type: functional
Experimental Setup: A549, 72 h
Metric: GI50 (µM)
Answer with a number only, understood to be in µM.

Below, each entry is followed by its recorded GI50 result.
Compound: CC(=O)/N=C1\NCCC(c2cn(C)c3cc(Br)ccc23)N1 (racemic)
Unit Of Measurement: µM
GI50: 6.3
//
Compound: CC(=O)/N=C1\NCCC(c2c[nH]c3cc(Br)ccc23)N1 (racemic)
Unit Of Measurement: µM
GI50: 6.86

Next, consider the following compound.
Query: Can you share its GI50? I mean this compound: CC(=O)/N=C1\NCCC(c2cn(C)c3ccc(Br)cc23)N1 (racemic)
Response: 0.43
